Reported values of CC50 for individual entries
test system: A549; assay: Cytotoxicity against human A549 cells assessed as reduction in cell viability measured after 24 hrs by MTT assay; assay type: cell-based; conditions: a549, 24 h
assayReadout: CC50 (µM)

INSERT INTO results (structuresmilesstring, assayreadout, val) VALUES
  ('Fc1cccc(Nc2nc(NCCOc3ccccc3)nc3[nH]cnc23)c1', 'CC50', 58),
  ('FC(F)(F)c1cccc(Nc2nc(NCCOc3ccccc3)nc3[nH]cnc23)c1', 'CC50', 106),
  ('Fc1cccc(NNc2nc(NCCOc3ccccc3)nc3[nH]cnc23)c1', 'CC50', 52.4);

----------
tested on: Caco-2; assay: Cytotoxicity against human Caco2 cells infected with SARS-COV-2 assessed as reduction in cell viability by celltiter-glo luminescent cell viability assay; format: cell-based
assayReadout: CC50 (µM)

INSERT INTO measurements (structuresmilesstring, val) VALUES
  ('CCC(CC)COC(=O)[C@H](C)N[P@](=O)(OC[C@H]1O[C@@](C#N)(c2ccc3c(N)ncnn23)[C@H](O)[C@@H]1O)Oc1ccccc1', 80),
  ('FC(F)(F)c1cccc(Nc2nc(NCCOc3ccccc3)nc3[nH]cnc23)c1', 81.3);

----------
system: Vero C1008; test: Cytotoxicity against African green monkey Vero E6 cells infected with SARS-COV-2 by celltiter-glo luminescent cell viability assay; format: cell-based; conditions: chlorocebus sabaeus, vero c1008
assayReadout: CC50

INSERT INTO measurements (structuresmilesstring, testtarget, val) VALUES
  ('CCC(CC)COC(=O)[C@H](C)N[P@](=O)(OC[C@H]1O[C@@](C#N)(c2ccc3c(N)ncnn23)[C@H](O)[C@@H]1O)Oc1ccccc1', 'Vero C1008', '166 µM');

----------
experiment: Inhibition of DENV NS5-MTase domain using GpppA2'OMe-RNA74 as a substrate incubated for 30 mins by filter binding assay; parameters: species or system dengue virus type 2; conditions: read-out: IC50
pIC50: −log10 of the molar value.
Reported values of pIC50 for individual entries
assayReadout: pIC50

INSERT INTO results (compound, assayreadout, val) VALUES
  ('Nc1ncnc2c1ncn2[C@@H]1O[C@H](C[C@@H](N)CC[C@H](N)C(=O)O)[C@@H](O)[C@H]1O [SINEFUNGIN]', 'pIC50', 6.20),
  ('Fc1cccc(/N=N/c2nc(NCCOc3ccccc3)nc3[nH]cnc23)c1', 'pIC50', 3.65),
  ('FC(F)(F)c1cccc(Nc2nc(NCCOc3ccccc3)nc3[nH]cnc23)c1', 'pIC50', 3.95);

----------
Reported values of pIC50 for individual entries
test system: dengue virus type 2; experiment: Antiviral activity against Dengue virus serotype 2 New Guinea C infected in pre-seeded Huh-7 cells assessed as inhibition of viral replication incubated for 72 hrs by immunodetection based secondary yield reduction assay; format: functional, organism-based; settings: Dengue virus, New Guinea C, Huh-7, 72 h; read-out: IC50
pIC50: −log10 of the molar value.
assayReadout: pIC50

INSERT INTO measurements (compound, testtarget, assayreadout, val) VALUES
  ('CNc1nc(Nc2cccc(C(=O)OC)c2)c2nc[nH]c2n1', 'dengue virus type 2', 'pIC50', 4.74),
  ('Fc1cccc(NNc2nc(NCCOc3ccccc3)nc3[nH]cnc23)c1', 'dengue virus type 2', 'pIC50', 5.47),
  ('OCCNc1nc(Nc2cccc(F)c2)c2nc[nH]c2n1', 'dengue virus type 2', 'pIC50', 4.53),
  ('CNc1nc(Nc2cccc(C(F)(F)F)c2)c2nc[nH]c2n1', 'dengue virus type 2', 'pIC50', 5.46),
  ('Fc1cccc(/N=N/c2nc(NCCOc3ccccc3)nc3[nH]cnc23)c1', 'dengue virus type 2', 'pIC50', 5.40),
  ('Fc1cccc(Nc2nc(NCCOc3ccccc3)nc3[nH]cnc23)c1', 'dengue virus type 2', 'pIC50', 4.92),
  ('CNc1nc(Nc2cccc(F)c2)c2nc[nH]c2n1', 'dengue virus type 2', 'pIC50', 5.03),
  ('COC(=O)c1cccc(Nc2nc(NCCO)nc3[nH]cnc23)c1', 'dengue virus type 2', 'pIC50', 4.76),
  ('FC(F)(F)c1cccc(Nc2nc(NCCOc3ccccc3)nc3[nH]cnc23)c1', 'dengue virus type 2', 'pIC50', 5.59),
  ('CC(C)OC(=O)[C@H](C)N[P@](=O)(OC[C@H]1O[C@@H](n2ccc(=O)[nH]c2=O)[C@](C)(F)[C@@H]1O)Oc1ccccc1 [SOFOSBUVIR]', 'dengue virus type 2', 'pIC50', 5.33),
  ('OCCNc1nc(Nc2cccc(C(F)(F)F)c2)c2nc[nH]c2n1', 'dengue virus type 2', 'pIC50', 5.35),
  ('O=C(O)c1cccc(Nc2nc(NCCOc3ccccc3)nc3[nH]cnc23)c1', 'dengue virus type 2', 'pIC50', 4.55);

----------
test: Selectivity index, ratio of CC50 for human Huh-7 cells to IC50 for Dengue virus serotype 2 New Guinea C infected in pre-seeded Huh-7 cells assessed as inhibition of viral replication incubated for 72 hrs by immunodetection based plaque reduction assay; assay type: toxicity, cell-based; conditions: read-out: Selectivity Index
assayReadout: selectivity ratio at 72 h

INSERT INTO measurements (structuresmilesstring, val) VALUES
  ('CC(C)OC(=O)[C@H](C)N[P@](=O)(OC[C@H]1O[C@@H](n2ccc(=O)[nH]c2=O)[C@](C)(F)[C@@H]1O)Oc1ccccc1', 50),
  ('NC(=O)c1ncn([C@@H]2O[C@H](CO)[C@@H](O)[C@H]2O)n1', 49),
  ('FC(F)(F)c1cccc(Nc2nc(NCCOc3ccccc3)nc3[nH]cnc23)c1', 222);

----------
test: Selectivity index, ratio of CC50 for human Huh-7 cells to IC50 for Dengue virus serotype 2 New Guinea C infected in pre-seeded Huh-7 cells assessed as inhibition of viral replication incubated for 72 hrs by immunodetection based secondary yield reduction assay; type: toxicity, cell-based; settings: read-out: Selectivity Index
Lab note: compare selectivity ratio at 72 h against 7. Equal or greater, write y. Smaller, write n.

INSERT INTO assay_data (structuresmilesstring, qualitativelabel) VALUES
  ('Fc1cccc(/N=N/c2nc(NCCOc3ccccc3)nc3[nH]cnc23)c1', 'n'),
  ('Fc1cccc(Nc2nc(NCCOc3ccccc3)nc3[nH]cnc23)c1', 'y'),
  ('OCCNc1nc(Nc2cccc(F)c2)c2nc[nH]c2n1', 'n'),
  ('Fc1cccc(NNc2nc(NCCOc3ccccc3)nc3[nH]cnc23)c1', 'n'),
  ('CC(C)OC(=O)[C@H](C)N[P@](=O)(OC[C@H]1O[C@@H](n2ccc(=O)[nH]c2=O)[C@](C)(F)[C@@H]1O)Oc1ccccc1', 'y'),
  ('CNc1nc(Nc2cccc(C(=O)OC)c2)c2nc[nH]c2n1', 'y'),
  ('CNc1nc(Nc2cccc(F)c2)c2nc[nH]c2n1', 'y'),
  ('COC(=O)c1cccc(Nc2nc(NCCO)nc3[nH]cnc23)c1', 'y'),
  ('CNc1nc(Nc2cccc(C(F)(F)F)c2)c2nc[nH]c2n1', 'y');

----------
assay: Selectivity index, ratio of CC50 for human Huh-7 cells to IC50 for West Nile virus lineage 1 (Italy/2009) infected in pre-seeded Huh-7 cells assessed as inhibition of viral replication incubated for 48 hrs by immunodetection based plaque reduction assay; format: toxicity, cell-based; conditions: read-out: Selectivity Index
assayReadout: selectivity ratio at 48 h

INSERT INTO results (compound, assayreadout, val) VALUES
  ('OCCNc1nc(Nc2cccc(C(F)(F)F)c2)c2nc[nH]c2n1', 'selectivity ratio at 48 h', 33),
  ('FC(F)(F)c1cccc(Nc2nc(NCCOc3ccccc3)nc3[nH]cnc23)c1', 'selectivity ratio at 48 h', 51),
  ('Fc1cccc(/N=N/c2nc(NCCOc3ccccc3)nc3[nH]cnc23)c1', 'selectivity ratio at 48 h', 30),
  ('CC(C)OC(=O)[C@H](C)N[P@](=O)(OC[C@H]1O[C@@H](n2ccc(=O)[nH]c2=O)[C@](C)(F)[C@@H]1O)Oc1ccccc1 [SOFOSBUVIR]', 'selectivity ratio at 48 h', 166),
  ('NC(=O)c1ncn([C@@H]2O[C@H](CO)[C@@H](O)[C@H]2O)n1 [RIBAVIRIN]', 'selectivity ratio at 48 h', 30);

----------
target: Abl (Tyrosine-protein kinase ABL1) (Homo sapiens, UniProt P00519); test: Inhibition of human recombinant N terminal His6 tagged Abl (27 to end residue) assessed as residual activity at 5 uM using KKGEAIYAADFA-NH2 as a substrate in the presence of NP-40 incubated for 10 mins by scintillation counting analysis relative to control; conditions: probe KKGEAIYAADFA-NH2, read-out: Activity
Sequence (P00519 whole entry): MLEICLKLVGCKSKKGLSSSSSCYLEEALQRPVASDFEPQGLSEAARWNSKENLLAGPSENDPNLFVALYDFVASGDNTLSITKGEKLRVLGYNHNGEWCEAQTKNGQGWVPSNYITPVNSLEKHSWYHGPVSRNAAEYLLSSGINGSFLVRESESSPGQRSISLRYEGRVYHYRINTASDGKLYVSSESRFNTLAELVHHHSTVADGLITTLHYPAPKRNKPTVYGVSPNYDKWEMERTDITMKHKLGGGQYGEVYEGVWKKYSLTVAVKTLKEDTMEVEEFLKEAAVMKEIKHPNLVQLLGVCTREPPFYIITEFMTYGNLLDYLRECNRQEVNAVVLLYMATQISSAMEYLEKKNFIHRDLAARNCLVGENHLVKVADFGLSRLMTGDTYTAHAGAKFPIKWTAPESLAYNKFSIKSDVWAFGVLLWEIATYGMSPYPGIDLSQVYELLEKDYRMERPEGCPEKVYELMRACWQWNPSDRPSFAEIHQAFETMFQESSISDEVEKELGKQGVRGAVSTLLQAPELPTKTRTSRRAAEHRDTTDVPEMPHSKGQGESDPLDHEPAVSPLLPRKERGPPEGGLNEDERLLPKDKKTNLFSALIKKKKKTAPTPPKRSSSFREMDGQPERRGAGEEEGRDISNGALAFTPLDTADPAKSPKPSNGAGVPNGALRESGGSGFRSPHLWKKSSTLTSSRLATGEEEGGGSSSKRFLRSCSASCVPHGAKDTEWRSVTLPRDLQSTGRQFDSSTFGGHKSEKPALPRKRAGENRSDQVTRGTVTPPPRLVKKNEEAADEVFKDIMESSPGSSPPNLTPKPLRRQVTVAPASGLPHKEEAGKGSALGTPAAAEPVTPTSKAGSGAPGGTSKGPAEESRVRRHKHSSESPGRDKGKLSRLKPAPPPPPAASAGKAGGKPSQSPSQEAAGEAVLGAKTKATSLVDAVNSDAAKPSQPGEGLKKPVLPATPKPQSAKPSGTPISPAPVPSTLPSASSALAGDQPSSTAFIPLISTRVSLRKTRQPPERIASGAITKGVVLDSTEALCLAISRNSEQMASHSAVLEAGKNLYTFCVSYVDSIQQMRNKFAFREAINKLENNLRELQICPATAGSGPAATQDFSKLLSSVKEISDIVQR
assayReadout: activity at 10 min, 5 µM (%)

INSERT INTO measurements (structuresmilesstring, resultqualifier, val) VALUES
  ('Fc1cccc(/N=N/c2nc(NCCOc3ccccc3)nc3[nH]cnc23)c1', '>', 98),
  ('Oc1cccc(Nc2nc(NCCOc3ccccc3)nc3[nH]cnc23)c1', '=', 65),
  ('FC(F)(F)c1cccc(Nc2nc(NCCOc3ccccc3)nc3[nH]cnc23)c1', '=', 70),
  ('Fc1cccc(Nc2nc(NCCOc3ccccc3)nc3[nH]cnc23)c1', '=', 54),
  ('Fc1cccc(NNc2nc(NCCOc3ccccc3)nc3[nH]cnc23)c1', '=', 67);
